Reported Kd values are given for each entry in this list.
Target entity: RAGE-Fc chimera protein (UniProt Q15109 23-342)
Sequence (Q15109 23-342, change not shown): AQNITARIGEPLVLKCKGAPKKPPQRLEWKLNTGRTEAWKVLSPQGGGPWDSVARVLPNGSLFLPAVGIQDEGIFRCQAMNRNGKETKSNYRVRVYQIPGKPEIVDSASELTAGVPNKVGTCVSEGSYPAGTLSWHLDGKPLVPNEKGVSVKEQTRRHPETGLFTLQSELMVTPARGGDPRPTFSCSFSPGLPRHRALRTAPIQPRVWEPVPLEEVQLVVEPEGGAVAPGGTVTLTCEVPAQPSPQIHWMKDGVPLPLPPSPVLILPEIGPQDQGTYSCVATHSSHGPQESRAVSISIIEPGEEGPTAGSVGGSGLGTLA
Protocol summary: BLI; saturation
Your answer is read as nM, so omit the unit and give the number.

>  <Binder>
FR-HMGB1 1–214 (natural protein) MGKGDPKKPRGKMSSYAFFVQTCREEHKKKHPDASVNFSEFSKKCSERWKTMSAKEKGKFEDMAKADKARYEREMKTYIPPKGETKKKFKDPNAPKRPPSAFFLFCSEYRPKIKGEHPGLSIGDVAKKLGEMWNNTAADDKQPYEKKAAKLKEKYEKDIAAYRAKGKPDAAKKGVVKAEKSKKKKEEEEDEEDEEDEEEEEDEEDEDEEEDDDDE

>  <Endpoint result>
2300

$$$$
>  <Binder>
3S-HMGB1 1–214 (natural protein) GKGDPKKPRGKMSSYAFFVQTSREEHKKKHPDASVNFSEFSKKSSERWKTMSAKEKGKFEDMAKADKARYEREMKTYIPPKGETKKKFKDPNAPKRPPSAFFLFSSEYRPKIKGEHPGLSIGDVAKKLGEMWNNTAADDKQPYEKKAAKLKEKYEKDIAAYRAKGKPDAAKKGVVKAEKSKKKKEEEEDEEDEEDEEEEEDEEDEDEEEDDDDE

>  <Endpoint result>
3000

$$$$

Now for a further binder.
For DS Box A 1-88 (protein, intramolecular disulfide Cys22-Cys44 in paper numbering (UniProt Cys23-Cys45); paper numbering omits the initiator Met (offset +1: paper Pro8-Ile78 = UniProt 9-79); any initiator Met or tag remnant left out) GKGDPKKPRGKMSSYAFFVQTCREEHKKKHPDASVNFSEFSKKCSERWKTMSAKEKGKFEDMAKADKARYEREMKTYIPPKGETKKKF , what is its reported Kd?
53400
